Tested system: CYP2C8 (Homo sapiens)
Sequence (P10632 whole entry): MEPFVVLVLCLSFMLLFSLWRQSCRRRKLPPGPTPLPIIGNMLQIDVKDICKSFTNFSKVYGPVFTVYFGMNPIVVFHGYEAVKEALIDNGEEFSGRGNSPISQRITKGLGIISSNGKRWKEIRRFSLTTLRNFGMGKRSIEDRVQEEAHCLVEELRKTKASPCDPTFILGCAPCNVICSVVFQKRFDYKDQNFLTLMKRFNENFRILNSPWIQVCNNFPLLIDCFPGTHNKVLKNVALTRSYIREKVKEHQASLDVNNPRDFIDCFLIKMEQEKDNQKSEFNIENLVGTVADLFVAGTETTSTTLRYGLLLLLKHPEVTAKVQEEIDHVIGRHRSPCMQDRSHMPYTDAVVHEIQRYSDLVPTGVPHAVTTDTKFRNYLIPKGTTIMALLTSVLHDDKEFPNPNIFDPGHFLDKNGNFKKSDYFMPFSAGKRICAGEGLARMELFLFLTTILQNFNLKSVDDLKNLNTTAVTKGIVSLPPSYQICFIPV
Assay method text: Inhibition of CYP2C8 (unknown origin) at 10 uM
Type: ADME
Mark Criterion met for reported inhibition at 10 µM of 40% or greater; mark Criterion not met for anything smaller.

Some entries whose results are on file:
[[record]]
compound = "CC(=O)NC(C)c1ccc2nc(-c3ccc(Oc4cccc(OCC5CC5)c4)cc3)oc2c1 (stereo unspecified)"
tested_system = "CYP2C8 (Homo sapiens)"
class_name = "Criterion met"

[[record]]
compound = "CC(=O)NC(C)c1ccc2sc(-c3ccc(Oc4cccc(OCC5CC5)c4)cc3)cc2c1 (stereo unspecified)"
tested_system = "CYP2C8 (Homo sapiens)"
class_name = "Criterion not met"

[[record]]
compound = "CC(=O)N[C@@H](C)COc1cnc(-c2ccc(Oc3cccc(OCC4CC4)c3)nc2)o1"
tested_system = "CYP2C8 (Homo sapiens)"
class_name = "Criterion not met"

[[record]]
compound = "CC(=O)NC(C)c1ccc2nc(-c3ccc(Oc4cccc(OCC5CC5)c4)nc3)oc2c1 (stereo unspecified)"
tested_system = "CYP2C8 (Homo sapiens)"
class_name = "Criterion met"

[[record]]
compound = "CC(=O)N[C@@H](C)COc1cnc(-c2ccc(Oc3cccc(OCC4CC4)c3)cc2)o1"
tested_system = "CYP2C8 (Homo sapiens)"
class_name = "Criterion not met"


Request: Record CC(=O)NC(C)CCc1cnc(-c2ccc(Oc3cccc(OCC4CC4)c3)cc2)o1 (stereo unspecified) ; criterion: inhibition at 10 µM no lower than 40%. Met?
Response: Criterion met

Request: Record CC(=O)NC(C)c1ccc2nc(-c3ccc(Oc4cccc(OCC5CC5)c4)cn3)oc2c1 (stereo unspecified) ; criterion: inhibition at 10 µM no lower than 40%. Met?
Response: Criterion met

Request: Record C[C@@H](COc1cnc(-c2ccc(Oc3cccc(OCC4CC4)c3)cc2)o1)NC(N)=O ; criterion: inhibition at 10 µM no lower than 40%. Met?
Response: Criterion not met

Request: Record CC(=O)NC(C)c1ccc2sc(-c3ccc(Oc4cccc(OCC5CC5)c4)nc3)nc2c1 (stereo unspecified) ; criterion: inhibition at 10 µM no lower than 40%. Met?
Response: Criterion not met

Request: Record CC(=O)N[C@@H](C)COc1cnc(-c2ccc(Oc3cccc(OCC4CC4)c3)cn2)o1 ; criterion: inhibition at 10 µM no lower than 40%. Met?
Response: Criterion not met

Request: Record CC(=O)NC(C)c1cccc(OCc2ccc(Oc3cccc(OCC4CC4)c3)cc2)c1 (stereo unspecified) ; criterion: inhibition at 10 µM no lower than 40%. Met?
Response: Criterion met
